# STUDY TARGET: SIRT1 (Homo sapiens, UniProt Q96EB6)
# Sequence (Q96EB6 whole entry): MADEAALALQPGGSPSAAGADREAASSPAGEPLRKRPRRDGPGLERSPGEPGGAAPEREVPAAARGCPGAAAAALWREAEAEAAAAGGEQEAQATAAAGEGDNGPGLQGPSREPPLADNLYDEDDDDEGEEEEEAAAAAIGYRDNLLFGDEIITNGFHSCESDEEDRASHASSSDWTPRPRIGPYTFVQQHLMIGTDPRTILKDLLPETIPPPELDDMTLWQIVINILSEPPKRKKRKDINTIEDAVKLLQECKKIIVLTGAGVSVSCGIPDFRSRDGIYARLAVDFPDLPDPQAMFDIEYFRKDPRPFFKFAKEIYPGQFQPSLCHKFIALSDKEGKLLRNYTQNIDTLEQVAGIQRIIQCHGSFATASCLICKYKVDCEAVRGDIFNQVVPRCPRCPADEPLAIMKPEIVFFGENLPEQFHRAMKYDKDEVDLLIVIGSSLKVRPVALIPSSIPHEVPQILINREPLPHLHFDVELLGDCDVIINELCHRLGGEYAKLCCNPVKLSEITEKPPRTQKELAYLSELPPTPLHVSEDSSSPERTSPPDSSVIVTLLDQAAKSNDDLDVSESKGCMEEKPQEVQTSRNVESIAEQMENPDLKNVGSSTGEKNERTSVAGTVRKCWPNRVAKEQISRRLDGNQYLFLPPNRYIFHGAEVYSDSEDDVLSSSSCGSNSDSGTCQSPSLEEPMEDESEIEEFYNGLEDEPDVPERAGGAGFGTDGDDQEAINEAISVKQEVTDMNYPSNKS
# MEASUREMENT NOTES: mass spectrometry based assay to identify modulators of SIRT1 activity (deacetylation of p53-based acetylated peptide)
# Type: biochemical
# APPLIED CONDITIONS: SIRT1 activation; 10 nM SIRT1, 0.5 μM peptide substrate, 120 μM βNAD+, 25 minutes at 25° C.
MEASURED METRIC: EC1.5

Would you please look over these solved cases?
O=C(Nc1cccnc1)c1cccc2nc(-c3cccc(C(F)(F)F)c3)oc12 ... B (EC1-5 1-25 uM)
O=C(Nc1cccc(CN2CCOCC2)n1)c1cccc2nc(-c3ccc(F)cc3C(F)(F)F)oc12 ... B (EC1-5 1-25 uM)
O=C(Nc1nc(CN2CCOCC2)cs1)c1cccc2oc(-c3cc(F)ccc3C(F)(F)F)nc12 ... A (EC1-5<1.0 uM)
O=C(Nc1nccs1)c1cccc2sc(-c3cccc(N4CCOCC4)c3)nc12 ... C (EC1-5>25 uM)
O=C(Nc1cccc(CN2CCOCC2)n1)c1cccc2nc(-c3ccccc3OC(F)(F)F)oc12 ... A (EC1-5<1.0 uM)

// returns reported EC1.5 for input "O=C(Nc1nc(CN2CCOCC2)cs1)c1cccc2oc(-c3ccc(F)cc3C(F)(F)F)nc12"
B (EC1-5 1-25 uM)

====

# STUDY TARGET: UniProt:Q96EB6
# MEASUREMENT NOTES: mass spectrometry based assay to identify modulators of SIRT1 activity (deacetylation of p53-based acetylated peptide)
# Assay type: biochemical
# APPLIED CONDITIONS: SIRT1 activation; 10 nM SIRT1, 0.5 μM peptide substrate, 120 μM βNAD+, 25 minutes at 25° C.
# Text: A mass spectrometry based assay was used to identify modulators of SIRT1 activity. The mass spectrometry based assay utilizes a peptide having 20 amino acid residues as follows: Ac-EE-K(biotin)-GQSTSSHSK(Ac)NleSTEG-K(5TMR)-EE-NH2 (SEQ ID NO: 1) wherein K(Ac) is an acetylated lysine residue and Nle is a norleucine. The peptide is labeled with the fluorophore 5TMR (excitation 540 nm/emission 580 nm) at the C-terminus. The sequence of the peptide substrate is based on p53 with several modifications. […]
MEASURED METRIC: EC1.5

Reference set (4 entries):
O=C(Nc1cccc2oc(-c3cccc(C(F)(F)F)c3)nc12)c1cnccn1 ... C (EC1-5>25 uM)
O=C(Nc1nccs1)c1cccc2sc(-c3cccnc3)nc12 ... C (EC1-5>25 uM)
O=C(Nc1nccs1)c1cccc2sc(-c3cccc(OC(F)(F)F)c3)nc12 ... C (EC1-5>25 uM)
O=C(Nc1cccnc1)c1cccc2sc(-c3cccc(OC(F)(F)F)c3)nc12 ... C (EC1-5>25 uM)

Which EC1.5 reading was recorded for the compound "O=C(Nc1ccccn1)c1cccc2sc(-c3cccc(OC(F)(F)F)c3)nc12" ?
C (EC1-5>25 uM)

====

# STUDY TARGET: SIRT1 (Homo sapiens, UniProt Q96EB6)
# MEASUREMENT NOTES: mass spectrometry based assay to identify modulators of SIRT1 activity (deacetylation of p53-based acetylated peptide)
# Format: biochemical
# APPLIED CONDITIONS: 25 min; SIRT1 activation; 10 nM SIRT1, 0.5 μM peptide substrate, 120 μM βNAD+, 25 minutes at 25° C.; read-out: % Fold Act. (percent maximum fold activation)
MEASURED METRIC: Emax

Some compounds with recorded Emax:
O=C(Nc1cccc(CN2CCOCC2)n1)c1cccc2oc(-c3cc(F)ccc3C(F)(F)F)nc12 ... > 150%
O=C(Nc1nc(CN2CCOCC2)cs1)c1cccc2nc(-c3cc(F)ccc3C(F)(F)F)oc12 ... > 150%
O=C(Nc1cccnc1)c1cccc2sc(-c3cccc(N4CCOCC4)c3)nc12 ... < 150%

Need Emax, item "O=C(Nc1nccs1)c1cccc2oc(-c3ccccc3OC(F)(F)F)nc12"
> 150%

====

Emax for assorted compounds
# STUDY TARGET: SIRT1 (Homo sapiens)
# MEASUREMENT NOTES: mass spectrometry based assay to identify modulators of SIRT1 activity (deacetylation of p53-based acetylated peptide)
# Assay type: biochemical
# APPLIED CONDITIONS: 25 min; SIRT1 activation; 10 nM SIRT1, 0.5 μM peptide substrate, 120 μM βNAD+, 25 minutes at 25° C.; read-out: % Fold Act. (percent maximum fold activation)
# Excerpt: A mass spectrometry based assay was used to identify modulators of SIRT1 activity. The mass spectrometry based assay utilizes a peptide having 20 amino acid residues as follows: Ac-EE-K(biotin)-GQSTSSHSK(Ac)NleSTEG-K(5TMR)-EE-NH2 (SEQ ID NO: 1) wherein K(Ac) is an acetylated lysine residue and Nle is a norleucine. The peptide is labeled with the fluorophore 5TMR (excitation 540 nm/emission 580 nm) at the C-terminus. The sequence of the peptide substrate is based on p53 with several modifications. […]

Solved cases below.
O=C(Nc1nc(CN2CCOCC2)cs1)c1cccc2nc(-c3ccccc3OC(F)(F)F)oc12 ... > 150%
O=C(Nc1nc(CN2CCOCC2)cs1)c1cccc2oc(-c3cc(F)ccc3C(F)(F)F)nc12 ... > 150%
O=C(Nc1ccccn1)c1cccc2nc(-c3ccc(F)cc3C(F)(F)F)oc12 ... > 150%

Let us move to another entry and its Emax.
Any idea what Emax came out for "O=C(Nc1nc(CN2CCOCC2)cs1)c1cccc2oc(-c3ccccc3C(F)(F)F)nc12" on SIRT1 (Homo sapiens)?
> 150%

====

# STUDY TARGET: SIRT1 (Homo sapiens, UniProt Q96EB6)
# MEASUREMENT NOTES: mass spectrometry based assay to identify modulators of SIRT1 activity (deacetylation of p53-based acetylated peptide)
# Format: biochemical
# APPLIED CONDITIONS: SIRT1 activation; 10 nM SIRT1, 0.5 μM peptide substrate, 120 μM βNAD+, 25 minutes at 25° C.
MEASURED METRIC: EC1.5

O=C(Nc1cccc2oc(-c3cccc(C(F)(F)F)c3)nc12)c1cscn1 ... C (EC1-5>25 uM)
O=C(Nc1ccccn1)c1cccc2oc(-c3cc(F)ccc3C(F)(F)F)nc12 ... C (EC1-5>25 uM)
O=C(Nc1ccccn1)c1ccnc2sc(-c3cccc(C(F)(F)F)c3)nc12 ... C (EC1-5>25 uM)

====

# STUDY TARGET: SIRT1 (Homo sapiens)
# MEASUREMENT NOTES: mass spectrometry based assay to identify modulators of SIRT1 activity (deacetylation of p53-based acetylated peptide)
# Format: biochemical
# APPLIED CONDITIONS: 25 min; SIRT1 activation; 10 nM SIRT1, 0.5 μM peptide substrate, 120 μM βNAD+, 25 minutes at 25° C.; read-out: % Fold Act. (percent maximum fold activation)
# Source text: A mass spectrometry based assay was used to identify modulators of SIRT1 activity. The mass spectrometry based assay utilizes a peptide having 20 amino acid residues as follows: Ac-EE-K(biotin)-GQSTSSHSK(Ac)NleSTEG-K(5TMR)-EE-NH2 (SEQ ID NO: 1) wherein K(Ac) is an acetylated lysine residue and Nle is a norleucine. The peptide is labeled with the fluorophore 5TMR (excitation 540 nm/emission 580 nm) at the C-terminus. The sequence of the peptide substrate is based on p53 with several modifications. […]
MEASURED METRIC: Emax

Tell me reported Emax for "O=C(Nc1cccc2oc(-c3ccccc3)nc12)c1cscn1" , tested with SIRT1 (Homo sapiens).
< 150%

Request - read-out Emax | tested on SIRT1 (Homo sapiens) | compound "O=C(Nc1cccc2oc(-c3cccc(OC(F)(F)F)c3)nc12)c1cnccn1"
< 150%

Enter reported Emax observed with SIRT1 (Homo sapiens) for "O=C(Nc1nccs1)c1cccc2oc(-c3cc(F)ccc3C(F)(F)F)nc12"
< 150%

Which Emax is reported with SIRT1 (Homo sapiens) for this entry: "O=C(Nc1ccccn1)c1cccc2oc(-c3cc(F)ccc3C(F)(F)F)nc12" ?
< 150%

# query: Emax | item "O=C(Nc1cccc(CN2CCOCC2)n1)c1cccc2nc(-c3cc(F)ccc3C(F)(F)F)oc12" | system: SIRT1 (Homo sapiens)
> 150%

For SIRT1 (Homo sapiens), provide Emax of "O=C(Nc1ccccn1)c1cccc2oc(-c3ccccc3OC(F)(F)F)nc12" please.
> 150%

# get_value(readout= Emax, system= SIRT1 (Homo sapiens)) for "O=C(Nc1nccs1)c1cccc2nc(-c3ccc(F)cc3C(F)(F)F)oc12"
< 150%

Find Emax (SIRT1 (Homo sapiens)) for the entry "O=C(Nc1nccs1)c1cccc2oc(-c3ccc(F)cc3C(F)(F)F)nc12"
< 150%

Query for SIRT1 (Homo sapiens): what Emax does the record show for "O=C(Nc1nccs1)c1cccc2sc(-c3cccnc3)nc12" ?
< 150%

Tell me reported Emax for "O=C(Nc1ccccn1)c1cccc2sc(-c3cccc(OC(F)(F)F)c3)nc12" , tested with SIRT1 (Homo sapiens).
< 150%

State its Emax on SIRT1 (Homo sapiens): "O=C(Nc1ccnc(N2CCCC2)c1)c1cccc2sc(-c3cccc(C(F)(F)F)c3)nc12"
> 150%

Report Emax for "O=C(Nc1nc(CN2CCOCC2)cs1)c1cccc2nc(-c3ccc(F)cc3C(F)(F)F)oc12" tested on SIRT1 (Homo sapiens).
> 150%

Quick check: Emax on SIRT1 (Homo sapiens), item "O=C(Nc1cccnc1)c1cccc2nc(-c3cccc(C(F)(F)F)c3)oc12" ?
> 150%

What Emax appears in the records for this compound with SIRT1 (Homo sapiens)? "O=C(Nc1ccccn1)c1cccc2nc(-c3cccc(C(F)(F)F)c3)oc12"
< 150%

Item: "O=C(Nc1cccc(N2CCOCC2)n1)c1cccc2sc(-c3cccc(C(F)(F)F)c3)nc12" Test system: SIRT1 (Homo sapiens) Read-out: Emax Value: ?
< 150%

Hello, I am looking for reported Emax with SIRT1 (Homo sapiens) for "O=C(Nc1cccc(CN2CCOCC2)n1)c1cccc2oc(-c3ccccc3C(F)(F)F)nc12" . Could you help?
> 150%

Query the reported Emax for SIRT1 (Homo sapiens); item: "O=C(Nc1nccs1)c1cccc2nc(-c3cccc(C(F)(F)F)c3)oc12"
< 150%

Quick check: Emax on SIRT1 (Homo sapiens), item "O=C(Nc1ccccn1)c1cccc2sc(-c3cccnc3)nc12" ?
< 150%

Please provide the recorded Emax for "O=C(Nc1ccccn1)c1cccc2sc(-c3cccc(N4CCOCC4)c3)nc12" , tested on SIRT1 (Homo sapiens).
< 150%

Could you share what Emax was measured for "O=C(Nc1ccccn1)c1ccnc2sc(-c3cccc(C(F)(F)F)c3)nc12" , tested on SIRT1 (Homo sapiens)?
< 150%

Hi! What's the reported Emax for "O=C(Nc1cccc(CN2CCOCC2)n1)c1cccc2nc(-c3ccccc3C(F)(F)F)oc12" on SIRT1 (Homo sapiens)?
> 150%

Where these numbers come from: patent US20120108585A1
